FYI, the data here is from PubChem BioAssay (NCI).

Tested on: CCRF-CEM leukemia
Assay: NCI tumour cell line growth inhibition, 48 h; in the data active = GI50 below about 0.43 µM; inactive = the rest
Hi there, use one of these labels in your reply, thanks! True for active, False for inactive

Could you check what this test reported for `CS(=O)(=O)Nc1ccc(Nc2c3ccccc3nc3cc(N)ccc23)cc1` ?
True

Could you check what this test reported for `Cc1ccc(NCCN2CCCCC2)c2c(=O)c3ccccc3sc12` ?
False

Could you check what this test reported for `Nc1cc(N)c2nc(-c3ccccc3)c(Sc3ccc(Cl)c(Cl)c3)nc2c1` ?
False

Could you check what this test reported for `CN1C(=O)/C(=C/c2c(Cl)[nH]c3ccccc23)c2ccccc21` ?
False

###

For each of the compounds below, state its GI50.
System: HOP-62 NSCLC
Experiment: NCI tumour cell line growth inhibition, 48 h

Returns the measured GI50 for the input compound. Input: `CCOc1ccc2nc(S/C(=C/C=C(C#N)C#N)c3ccc(Cl)cc3)sc2c1`
4.08 µM

Returns the measured GI50 for the input compound. Input: `C[C@H](O)CNc1cc(-c2[nH]c3cccnc3c2-c2ccc(F)cc2)ccn1`
20.1 µM

Returns the measured GI50 for the input compound. Input: `CCN(CC)CCOc1nc2c3ccc(Cl)cc3nn2c2ccccc12`
2.38 µM

Returns the measured GI50 for the input compound. Input: `NCCCCCCn1c2c(c3ccccc3c1=O)C(=O)c1ccccc1-2`
1.28 µM

Returns the measured GI50 for the input compound. Input: `OCC#Cc1ccccc1C#CCCCCCCC#Cc1ccccc1C#CCO`
9.78 µM

Returns the measured GI50 for the input compound. Input: `CC(=O)CC(=O)Nc1c(C)[c]([Hg][O]C(C)=O)c(C)[c]([Hg][O]C(C)=O)[c]1[Hg][O]C(C)=O`
20.8 µM

Returns the measured GI50 for the input compound. Input: `Oc1ccccc1N=Cc1c(O)ccc2ccccc12`
17.5 µM

Returns the measured GI50 for the input compound. Input: `CN1CCN(c2ccc(N3Cc4ccccc4OC4=C3C(=O)c3c(O)ccc(O)c3C4=O)cn2)CC1`
1.55 µM

Returns the measured GI50 for the input compound. Input: COc1ccc2c(c1)CCC1C2CCC2(C)C3=CC(O)CCC3CC12 (stereo not given)
19.6 µM

Returns the measured GI50 for the input compound. Input: `Clc1ccc(N2CCN(CCCN3CCN(c4cccc(Cl)c4)CC3)CC2)cc1`
3.97 µM
